# Tested on: HEK293T (UBE3A T485A transfected, BAR Wnt reporter)
# EXPERIMENT DESCRIPTION: Renilla luciferase signal (cell health) relative to plate median (fold (linear ratio)); higher = higher Renilla signal
# SETUP CONDITIONS: concentration: 100 uM; 24 h
In all, about 1,100 compounds were measured (“Renilla luciferase signal (cell health) relative to plate median”: median about 0.97, highest 2% from about 1.6 on). This is one part of a sample in which the highest values are shown more often than they occur.
MEASURED ATTRIBUTE: Renilla luciferase signal
Write the value as a bare number.

Q: Field request: Renilla luciferase signal | item: CCC1(c2ccccc2)C(=O)N=C([O-])NC1=O.[Na+] (centres undefined) [Phenobarbital sodium]
A: 0.914

Q: Next: CC(C)(C)C(O)C(Oc1ccc(Cl)cc1)n1cncn1 (centres undefined) [Triadimenol]
A: 0.699

Q: Further, for CCSC(=O)N(CC)C1CCCCC1 [Cycloate] ?
A: 1.15

Q: And c1cc2ccc3cccc4ccc(c1)c2c34 [Pyrene] ?
A: 0.889

Q: Request: O=C([O-])C(F)(F)C(F)(F)C(F)(F)C(F)(F)C(F)(F)C(F)(F)C(F)(F)F.[NH4+] [PFOA, ammonium salt]
A: 0.224

Q: Similarly, CC(C)(c1ccccc1)c1ccc(O)c(C(C)(C)c2ccccc2)c1 [2,4-Bis(1-methyl-1-phenylethyl)phenol] ?
A: 1.14

Q: Note, next up: CCCCSP(=O)(SCCCC)SCCCC [Tribufos]
A: 0.728

Q: Now consider C1CC2OC2CC1C1CO1 (centres undefined) [4-Vinyl-1-cyclohexene dioxide] and answer again.
A: 0.459

Q: How about this compound: CCSC(=O)N1CCCCCC1 [Molinate]
A: 1.8

Q: Input O=C(Nc1ccccc1-c1ccc(Cl)cc1)c1cccnc1Cl [Boscalid]
A: 1.24

Q: Same again, this time with CCOP(=S)(OCC)SCSP(=S)(OCC)OCC [Ethion]
A: 1.13

Q: Record: CCOC(=O)C(C)OC(=O)c1cc(Oc2ccc(C(F)(F)F)cc2Cl)ccc1[N+](=O)[O-] (centres undefined) [Lactofen]
A: 0.32

Q: Follow-up item: CCCCNC(=O)OCC#CI [3-Iodo-2-propynyl-N-butylcarbamate]
A: 0.0151

Q: Entry to check: O=[As][O-].[Na+] [Sodium arsenite]
A: 0.0136

Q: How about this compound: CCc1cnc(C2=NC(C)(C(C)C)C(=O)N2)c(C(=O)O)c1 (centres undefined) [Imazethapyr]
A: 1.58

Q: Please do the same for CC(Cc1ccc(OCC(=O)O)cc1)NCC(O)c1csc(C(F)(F)F)n1 (centres undefined) as well.
A: 1.28

Q: And then CCC(=O)C(CC(C)N(C)C)(c1ccccc1)c1ccccc1.Cl (centres undefined) [Methadone hydrochloride] , what is it?
A: 0.142

Q: Note, next up: CS(=O)(=O)c1ccc(C(=O)C2C(=O)CCCC2=O)c([N+](=O)[O-])c1 [Mesotrione]
A: 1.39

Q: What do you get for "Clc1ccc(C(c2ccc(Cl)cc2)C(Cl)(Cl)Cl)cc1" ?
A: 0.995
